Just for reference, ChEMBL document CHEMBL3098025 is where these values come from.

METHOD: Inhibition of HCV1b NS5B polymerase
Design: species or system Hepatitis C virus subtype 1b
Collected IC50 values appear next to each entry.
// units = nM; emit number, no label

>  <MOLECULAR_STRING>
O=C(O)c1c(-c2ccc[nH]c2=O)c2c3occc3c(F)cc2n1Cc1cc2c(=O)cc[nH]c2cc1F

>  <QUANTITY_MEASURED>
IC50

>  <VALUE_UNITS>
nM

>  <READING>
3

$$$$
>  <MOLECULAR_STRING>
O=C(O)c1c(-c2ccc[nH]c2=O)c2c3occc3c(F)cc2n1Cc1cc(F)ccc1F

>  <QUANTITY_MEASURED>
IC50

>  <VALUE_UNITS>
nM

>  <READING>
2

$$$$
>  <MOLECULAR_STRING>
NC(=O)c1ccc(F)c(Cn2c(C(=O)O)c(-c3ccc[nH]c3=O)c3c4occc4c(F)cc32)c1

>  <QUANTITY_MEASURED>
IC50

>  <VALUE_UNITS>
nM

>  <READING>
4

$$$$
>  <MOLECULAR_STRING>
O=C(O)c1c(-c2ccc[nH]c2=O)c2c3occc3c(F)cc2n1Cc1cc2cn[nH]c2cc1Cl

>  <QUANTITY_MEASURED>
IC50

>  <VALUE_UNITS>
nM

>  <READING>
3

$$$$
>  <MOLECULAR_STRING>
Cc1cc2[nH]ncc2cc1Cn1c(C(=O)O)c(-c2ccc[nH]c2=O)c2c3occc3c(F)cc21

>  <QUANTITY_MEASURED>
IC50

>  <VALUE_UNITS>
nM

>  <READING>
3

$$$$

// query IC50 value for entry `O=C(O)c1c(-c2ccc[nH]c2=O)c2c3occc3c(F)cc2n1Cc1cc2[nH]cnc2cc1Cl` 6

Consider the molecule `Nc1cc(Cn2c(C(=O)O)c(-c3ccc[nH]c3=O)c3c4occc4c(F)cc32)c2ccccc2n1` and give its measured IC50. 4

Given the molecule `O=C(O)c1c(-c2ccc[nH]c2=O)c2c3occc3cc(F)c2n1Cc1cc(F)ccc1F` , what is its reported IC50? 17
